molecular target: AgAbp1; assay: SPOT peptide array binding signal intensity (averaged, normalized) (arbitrary units (background-subtracted, floor 0; scale differs between SH3 domains)); higher = stronger binding of the SH3 domain to the peptide
Could you please report measured SPOT peptide array binding signal intensity for the items listed next?
Format: numeric value only, no unit, no commentary.

*Q* Fill in the blank: the reported SPOT peptide array binding signal intensity of LKQRFFLMFPKSIIW is ____.
*A* 4

*Q* # repeat for QQNRPLPQLPNRNNR
*A* 30

*Q* # repeat for HGKRRAPLLLAKLDV
*A* 19

*Q* # repeat for QPQRTAPKPPISAPR
*A* 2

Values from the supplement of paper PMC4466140
